These measurements were taken from the supplement of paper PMC10567573.

B1: TRIM55 (parent)
chain: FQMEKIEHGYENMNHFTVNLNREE

# Variants of: B1
# EXPERIMENTAL PROTOCOL: protein stability index of a GFP-peptide fusion (GPS, HEK-293T) (PSI 1-6); higher = more stable;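 note: lentivirally expressed fusions sorted by FACS into six bins by GFP to DsRed ratio, PSI derived from sequencing read proportions per bin multiplied by bin number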
# CONDITION CONTEXT: c terminus: a fixed tail appended
# key: entry, value: protein stability index

**Q:** Fill in: protein stability index of `F1V` is ___
**A:** 4.19

**Q:** Look at this variant and give its reported protein stability index. `E4V`
**A:** 1.8

**Q:** State the recorded protein stability index for this entry: `E11L`
**A:** 1.81

**Q:** Return reported protein stability index; argument: `R22G`
**A:** 2.67

**Q:** Would you kindly share the measured protein stability index for `H8L` ?
**A:** 2.44

**Q:** Given the entry `I6G` , report its measured protein stability index.
**A:** 2.66

**Q:** Sample `K5Y` — what was its protein stability index?
**A:** 2.16

**Q:** # input variant: `H8M` ; wanted: its protein stability index
**A:** 2.51

**Q:** Would you mind telling me what protein stability index value was observed for `H15E` ?
**A:** 3.62

**Q:** # input variant: `M3L` ; wanted: its protein stability index
**A:** 2.82
